These entries and their values trace back to patent US20080063646A1.

Molecular target: T1, recombinant human IP-10 (R&D Systems) (human, UniProt P02778 22-98)
T1 sequence: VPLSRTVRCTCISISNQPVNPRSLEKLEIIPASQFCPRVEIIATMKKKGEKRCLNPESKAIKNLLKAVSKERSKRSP
Assay: cell-based or functional assay
recorded-metric: IC50 of inhibition of chemotaxis, donor 1012 (µg/mL)
Answers are plain numbers, in µg/mL.

Note down IC50 of inhibition of chemotaxis, donor 1012 recorded for murine monoclonal antibody AIP12 (antibody, V domains shown, Mouse hybridoma antibody; Mouse IgG1/kappa is used as its isotype control; also called MuAIP12; MUAIP12) VH: QIQLVQSGPELKKPGETVKISCKASGYTFTDYSMHWVKQAPGKGLKWMGWINTETGEPTYADDFKGRFAFSLETSASTAYLQINNLKNEDTATYFCARNYDYDGYFDVWGAGTTVTVSS VL: DIQMTQSPSSLSASLGGKVTITCKASQDINKYIAWYQHKPGKGPRLLIHYTSTLQPGIPSRFSGSGSGRDYSFSISNLEPEDIATYYCLQYDNLLFTFGSGTKLEIK
0.091
